System: HOP-62 NSCLC
Test: NCI-60 one-dose screen, 48 h
Settings: 10 µM unless noted
Compounds without any hit were thinned out: in the full panel of roughly 83,000, 20% have a hit. Activity calls are given as the source filed them. How the source made its calls: active means growth percent below 10; inactive means the rest.
Outcome codes: active, inactive

COMPOUND: CCCN=C(N)c1ccc(NC(=O)c2ccc(C(=O)Nc3ccc(C(N)=NCCC)cc3)cc2)cc1
ASSIGNED CLASS: inactive
//
COMPOUND: CN1C(=O)N(C)C2NC(N/N=C/c3ccccc3)=NC21 (configuration not stated)
ASSIGNED CLASS: inactive
//
COMPOUND: NC(=O)c1cccc(-c2cc(C(N)=O)ccc2Cl)c1
ASSIGNED CLASS: inactive
//
COMPOUND: O=C1Nc2c(ccc(Cl)c2Cl)/C1=C/c1ccc(F)cc1
ASSIGNED CLASS: inactive
//
COMPOUND: CCCCCCCCCCCCCCCC(=O)OC[C@@]1(O)C[C@@]23CC[C@@H]4C(C)(C)CCC[C@@]4(C)[C@@H]2CC[C@H]1C3
ASSIGNED CLASS: inactive
//
COMPOUND: CC(=O)c1c[nH]c2ccc(-c3ccnc(Nc4ccc(NC(=O)C5CCCC5)c(CN5CCOCC5)c4)n3)cc12
ASSIGNED CLASS: active
//
COMPOUND: CN1CCN(c2ccc(NC3=C(Cl)C(=O)c4ncccc4C3=O)cc2C#N)CC1
ASSIGNED CLASS: inactive
//
COMPOUND: CC(O)(CO)c1ccccc1 (configuration not stated)
ASSIGNED CLASS: inactive
//
COMPOUND: CSc1nnc2c(=O)n(C)c(=O)n(C)c2n1
ASSIGNED CLASS: inactive
//
COMPOUND: C#CCn1cc(C=C2C(=O)NC(=S)NC2=O)c2cc(Cl)ccc21
ASSIGNED CLASS: active
//
COMPOUND: O=C(OCc1nc2nc(Cl)nc(N3CCOCC3)c2[nH]1)n1ccnc1
ASSIGNED CLASS: inactive
//
COMPOUND: COc1ccc(C2=C(c3ccccc3)c3ccc(OC(C)=O)cc3OC2(C)C)cc1
ASSIGNED CLASS: inactive
//
COMPOUND: CC(c1ccccc1)n1ccnc1CO (configuration not stated)
ASSIGNED CLASS: inactive
//
COMPOUND: CCN(CC)CCCC(C)Nc1cc(-c2cccc(OC(F)(F)F)c2)nc2ccc(N3CCCC3)cc12 (configuration not stated)
ASSIGNED CLASS: inactive
//
COMPOUND: CCOc1ccc(/C=N/Nc2cc(C)nc3ccc(Cl)cc23)cc1
ASSIGNED CLASS: inactive
//
COMPOUND: O=C1OC(=O)C2C1CC=CC2c1ccccc1 (configuration not stated)
ASSIGNED CLASS: inactive
//
COMPOUND: O=C1Nc2c(ccc(Cl)c2Cl)/C1=C/c1ccc(O)cc1
ASSIGNED CLASS: inactive
//
COMPOUND: COc1cc(NCC(O)CN(CC(C)C)C2CCCC2)c2ncccc2c1 (configuration not stated)
ASSIGNED CLASS: inactive
//
COMPOUND: C=C(C)[C@@H]1CC[C@]2(C(=O)NCCCN(CCC#N)CCC#N)CC[C@]3(C)[C@H](CC[C@@H]4[C@@]5(C)CCC(=O)C(C)(C)[C@@H]5CC[C@]43C)[C@@H]12
ASSIGNED CLASS: inactive
//
COMPOUND: Cc1c2c(cc[n+]1Cc1ccccc1)c1ccc(OCc3ccccc3)cc1n2Cc1ccccc1
ASSIGNED CLASS: active
//
COMPOUND: CC(=O)N1c2ccccc2NC2=C(C(=O)N(C)C2(C)C)C1C (configuration not stated)
ASSIGNED CLASS: inactive
//
COMPOUND: C[C@]12CCc3nc(Nc4cccc(O)c4)sc3C1=CC[C@@H]1[C@@H]2CC[C@]2(C)/C(=N\NC(N)=S)CC[C@@H]12
ASSIGNED CLASS: inactive
//
COMPOUND: CN(C)C(=O)OCc1nc2c(N3CCOCC3)nc(-c3ccccc3)nc2n1C
ASSIGNED CLASS: active
//
COMPOUND: COc1ccc(NC(=O)c2sc3nc(C)c(C(O)c4ccc(OC)cc4)cc3c2N)cc1 (configuration not stated)
ASSIGNED CLASS: inactive
//
COMPOUND: O=S(=O)(NCCCNc1nccc(-c2c(-c3ccc(F)c(O)c3)nc3sccn23)n1)c1ccc(F)cc1
ASSIGNED CLASS: inactive
//
COMPOUND: COc1ccc(NS(=O)(=O)c2ccc(C)cc2)c([N+](=O)[O-])c1
ASSIGNED CLASS: inactive
//
COMPOUND: COc1ccc(-n2cc(-c3cc(OC)c(OC)c(OC)c3)n(C(C)=O)c2=O)cc1
ASSIGNED CLASS: inactive
//
COMPOUND: O=C1Nc2c(ccc(Cl)c2Cl)/C1=C/c1ccccn1
ASSIGNED CLASS: inactive
//
COMPOUND: COc1ccc(-c2nc(SC(C)C)nc(NNC(N)=O)c2C#N)cc1
ASSIGNED CLASS: inactive
//
COMPOUND: COc1ccc2c(Nc3ccc(NS(C)(=O)=O)cc3)c3ccccc3nc2c1
ASSIGNED CLASS: active
//
COMPOUND: COc1ccc(-c2nc(N/N=C/c3ccco3)nc(N3CCOCC3)c2C#N)cc1
ASSIGNED CLASS: inactive
//
COMPOUND: CCc1c(Nc2ccc(C)cc2)[nH]c(N)nc1=S
ASSIGNED CLASS: inactive
//
COMPOUND: COc1ccc(/C=C2\COc3ccc(-c4ccccc4)cc3C2=O)cc1O
ASSIGNED CLASS: active
//
COMPOUND: O=C(O)CCCCCCCCCCCCCCC(=O)O
ASSIGNED CLASS: inactive
//
COMPOUND: CCOC(=O)C1=C(C)NC(C)=C(C(=O)OCC)C1c1cc(Br)c(O)c(OC)c1
ASSIGNED CLASS: inactive
//
COMPOUND: CCOC(=O)c1c(C)nc2c(c1N)C(=O)C(=O)N2Cc1ccc(C(F)(F)F)cc1
ASSIGNED CLASS: inactive
//
COMPOUND: Cn1c(COC(=O)NCCn2ccnc2)nc2c(N3CCOCC3)nc(-c3ccccc3)nc21
ASSIGNED CLASS: active
//
COMPOUND: O=C(CSc1nc2sc3c(c2c(=O)n1Cc1ccccc1)CCCC3)N1CCN(c2ccccc2)CC1
ASSIGNED CLASS: inactive
//
COMPOUND: COc1cc(COC(=O)CCCCC[P+](c2ccccc2)(c2ccccc2)c2ccccc2)c(OC)c2c1OCO2
ASSIGNED CLASS: inactive
//
COMPOUND: CC1CCN(C(=O)OCc2nc3nc(Cl)nc(N4CCOCC4)c3[nH]2)CC1
ASSIGNED CLASS: inactive
//
COMPOUND: O=C(CN1CCOCC1)Nc1ccc2ncnc(Nc3ccc(Oc4cccc(F)c4)c(Cl)c3)c2c1
ASSIGNED CLASS: inactive
//
COMPOUND: CCCCCCCCCCCCC1CCC/C=C\CCC(=O)O1 (configuration not stated)
ASSIGNED CLASS: inactive

----------
Test system: OVCAR-5 ovarian
Assay: NCI-60 one-dose screen, 48 h (100 = growth as untreated, 0 = no growth, -100 = all killed)
Conditions: 10 µM unless noted
The panel holds about 83,000 compounds, 20% with a hit somewhere; the sample as a whole holds those more often.

MOLECULE: COc1ccc(Cn2nc(-c3cc(OC)c(OC)c(OC)c3)c3c2CCc2cnoc2-3)cc1OC
growth / %: 89.9

MOLECULE: Cc1ccc(S(=O)(=O)Nc2ccc(Cl)cc2)cc1
growth / %: 97.3

MOLECULE: CCc1nc(C)cn1C(=O)OCc1nc2nc(Cl)nc(N3CCOCC3)c2[nH]1
growth / %: -48.9

MOLECULE: CC[C@H](CC[C@@H](C)[C@H]1CC[C@H]2[C@@H]3CC=C4C[C@@H](OCCc5nn[nH]n5)CC[C@]4(C)[C@H]3CC[C@]12C)C(C)C
growth / %: 108

MOLECULE: C=C1C(=O)O[C@H]2[C@H]1CC/C(COC(=O)NCCc1c[nH]c3ccc(Cl)cc13)=C\CC[C@@]1(C)O[C@@H]21
growth / %: -11.3

MOLECULE: CCCCCCCCCCCCC1CCC/C=C\CCC(=O)O1 (stereo not given)
growth / %: 102

MOLECULE: CCCCc1ccc(Nc2nnc(SCC(=O)NC(=O)NCC)s2)cc1
growth / %: 96.8

MOLECULE: CC(=O)c1c(C)[nH]c(-c2nc3ccc(N4CCN(C)CC4)cc3[nH]2)c1-c1ccccc1
growth / %: 34.8

MOLECULE: COc1ccc(/C=C/C(=O)c2ccc(Nc3ncnc4ccccc34)cc2)cc1OC
growth / %: 103

MOLECULE: O=C(NCCN1CCOCC1)OCc1nc2nc(Cl)nc(N3CCOCC3)c2[nH]1
growth / %: 93.3

MOLECULE: O=c1[nH]nc(-c2ccc(Cl)cc2)cc1Cc1cccc([N+](=O)[O-])c1
growth / %: 107

MOLECULE: O=C(O)C(/C=C/c1ccco1)=N\Nc1nc(-c2ccc(Cl)cc2)cs1
growth / %: 98.9

MOLECULE: COc1ccccc1/C=C1\COc2ccc(-c3ccccc3)cc2C1=O
growth / %: 104

MOLECULE: CN(C)Cc1c(-c2ccccc2)[nH]c2ccccc12
growth / %: 96.1

MOLECULE: CN1CCN(C(=O)OCc2nc3c(N4CCOCC4)nc(-c4ccccc4)nc3n2C)CC1
growth / %: -86.1

MOLECULE: COc1ccc(C2=C(c3ccccc3)c3ccc(OC(C)=O)cc3OC2(C)C)cc1
growth / %: 85.3

MOLECULE: O=C1C(=O)c2c(nc3ncccn23)-c2ccccc21
growth / %: -88.1

MOLECULE: CCCCCCCCN1C(=O)/C(=c2\sc3n(c2=O)C2C(NN=3)N(CC)C(=O)N2CC)c2ccccc21 (stereo not given)
growth / %: 81.6

MOLECULE: Cc1c2c(cc[n+]1Cc1ccc(F)cc1)c1ccc(OCc3cccc(F)c3)cc1n2Cc1cccc(F)c1
growth / %: 4.86

MOLECULE: N#C/C(=C\c1ccc(Br)cc1)n1nnc2cccc(F)c21
growth / %: 10.5
